# Test system: Bean (BN)
# procedure_summary: Post-emergence herbicide test
# Format: in vivo, Phaseolus vulgaris var. Black Valentine
# cond: Phaseolus vulgaris, post-emergence, 336 h; 1 lb/acre; two weeks after treatment
metric_name: pest or weed control at 1120.85 g/ha (%)
Number only, in %; omit the unit.

[
  {
    "structure_notation": "CCSc1nnc(N(C)C(=O)NC)s1",
    "pest or weed control at 1120.85 g/ha [%]": 100
  },
  {
    "structure_notation": "CCCCCCCCSc1nnc(NC(=O)NC)s1",
    "pest or weed control at 1120.85 g/ha [%]": 100
  },
  {
    "structure_notation": "CCCCSc1nnc(NC(=O)NC)s1",
    "pest or weed control at 1120.85 g/ha [%]": 90
  },
  {
    "structure_notation": "CNC(=O)Nc1nnc(SCC(C)C)s1",
    "pest or weed control at 1120.85 g/ha [%]": 80
  },
  {
    "structure_notation": "CCS(=O)(=O)c1nnc(N(C)C(=O)NC)s1",
    "pest or weed control at 1120.85 g/ha [%]": 100
  },
  {
    "structure_notation": "CCCCS(=O)(=O)c1nnc(N(C)C(=O)NC)s1",
    "pest or weed control at 1120.85 g/ha [%]": 80
  }
]

Could you now consider this next compound?
Sample CCCCSc1nnc(N(C)C(=O)NC)s1 — what was its pest or weed control at 1120.85 g/ha? 100

----------
Recorded pest or weed control at 1120.85 g/ha for the following compounds
# Tested on: Cotton (CT)
# procedure_summary: Pre-emergence herbicide test
# Format: in vivo, Gossypium hirsutum var. DPL smooth leaf
# cond: Gossypium hirsutum, 336 h, 1 lb/acre, two weeks after treatment
# Experimental: Cotton (CT)--Gossypium hirsutum var. DPL smooth leaf All crop and weed species were planted individually in 3' plastic pots containing potting soil. Four seeds each of corn, cotton, and snapbeans were seeded to a depth equal to the diameter of the seed. All other species were surface seeded and sprinkled with screened soil in an amount sufficient to cover the seed. Immediately after planting, all pots were watered by sub-irrigation in greenhouse trays. […]
Number only, in %; omit the unit.

Worked examples, 4 compounds total:
[
  {
    "structure_notation": "CCS(=O)(=O)c1nnc(N(C)C(=O)NC)s1",
    "pest or weed control at 1120.85 g/ha [%]": 50
  },
  {
    "structure_notation": "CCCCSc1nnc(N(C)C(=O)NC)s1",
    "pest or weed control at 1120.85 g/ha [%]": 10
  },
  {
    "structure_notation": "CCSc1nnc(N(C)C(=O)NC)s1",
    "pest or weed control at 1120.85 g/ha [%]": 10
  },
  {
    "structure_notation": "CCCCS(=O)(=O)c1nnc(N(C)C(=O)NC)s1",
    "pest or weed control at 1120.85 g/ha [%]": 10
  }
]

Sample CCCCCCCCSc1nnc(NC(=O)NC)s1 — what was its pest or weed control at 1120.85 g/ha? 30

----------
# System: Yellow foxtail grass (YF)
# procedure_summary: Pre-emergence herbicide test
# Format: in vivo, Setaria glauca
# cond: Setaria, 336 h, 8 lb/acre, two weeks after treatment
Recorded pest or weed control at 8966.8 g/ha for the following molecules
Number only, in %; omit the unit.

[
  {
    "molecule": "CNC(=O)Nc1nnc(COC)s1 [Example 25]",
    "unit_descriptor": "%",
    "pest or weed control at 8966.8 g/ha": 10
  },
  {
    "molecule": "O=C(Nc1ccc(Cl)c(Cl)c1)Nc1nnc(C(F)(F)F)s1 [Example 16]",
    "unit_descriptor": "%",
    "pest or weed control at 8966.8 g/ha": 10
  },
  {
    "molecule": "O=C(Nc1ccccc1)Nc1nnc(C(F)(F)F)s1 [Example 14]",
    "unit_descriptor": "%",
    "pest or weed control at 8966.8 g/ha": 10
  },
  {
    "molecule": "C=CCNC(=O)Nc1nnc(C(F)(F)F)s1 [Example 12]",
    "unit_descriptor": "%",
    "pest or weed control at 8966.8 g/ha": 10
  },
  {
    "molecule": "CSc1nnc(N(C)C(=O)N(C)C)s1 [Example 5]",
    "unit_descriptor": "%",
    "pest or weed control at 8966.8 g/ha": 90
  },
  {
    "molecule": "C=CCNC(=O)Nc1nnc(SC)s1 [Example 31]",
    "unit_descriptor": "%",
    "pest or weed control at 8966.8 g/ha": 70
  }
]

Param readout= pest or weed control at 8966.8 g/ha; system= Yellow foxtail grass (YF); entry= CNC(=O)N(C)c1nnc(SC)s1 [Example 38] ; returns value. 100

Then O=C(Nc1ccc(Cl)cc1)Nc1nnc(C(F)(F)F)s1 [Example 15] ? 10

Then CNC(=O)Nc1nnc(-c2ccc(Cl)cc2)s1 [Example 71] ? 0

Then CC(C)NC(=O)Nc1nnc(C(F)(F)F)s1 [Example 11] ? 10

Then CCN(C(=O)NC)c1nnc(C(F)(F)F)s1 [Example 37] ? 90

Then CN(C)C(=O)Nc1nnc(C(F)(F)F)s1 [Example 2] ? 90

Then CCNC(=O)Nc1nnc(C(F)(F)F)s1 [Example 9] ? 20

Then CCCNC(=O)Nc1nnc(C(F)(F)F)s1 [Example 10] ? 20

Then CSc1nnc(NC(=O)NC(C)C)s1 [Example 30] ? 10

Then CNC(=O)Nc1nnc(C(F)(F)F)s1 [Example 1] ? 90

Then CCCNC(=O)Nc1nnc(SC)s1 [Example 29] ? 10

Then CNC(=O)N(C)c1nnc(C(F)(F)F)s1 [Example 36] ? 90

Then CNC(=O)Nc1nnc(OC)s1 [Example 24] ? 10

----------
# Test system: Barnyard grass (BG)
# procedure_summary: Post-emergence herbicide test
# Format: in vivo
# cond: Echinochloa crus-galli, 336 h, 8 lb/acre, two weeks after treatment
metric_name: pest or weed control at 8966.8 g/ha (%)
Number only, in %; omit the unit.

Worked examples, 4 compounds total:
[
  {
    "structure_notation": "CCCNC(=O)Nc1nnc(C(F)(F)F)s1",
    "pest or weed control at 8966.8 g/ha (%)": 40
  },
  {
    "structure_notation": "CCNC(=O)Nc1nnc(SC)s1",
    "pest or weed control at 8966.8 g/ha (%)": 20
  },
  {
    "structure_notation": "O=C(Nc1ccc(Cl)cc1)Nc1nnc(C(F)(F)F)s1",
    "pest or weed control at 8966.8 g/ha (%)": 20
  },
  {
    "structure_notation": "CNC(=O)Nc1nnc(-c2ccccc2)s1",
    "pest or weed control at 8966.8 g/ha (%)": 10
  }
]

Sample CNC(=O)Nc1nnc(C(F)(F)Cl)s1 — what was its pest or weed control at 8966.8 g/ha? 40

Then CCSc1nnc(NC(=O)NC)s1 ? 100

Then CNC(=O)Nc1nnc(-c2ccccc2Cl)s1 ? 40

Then CSc1nnc(NC(=O)NC(C)C)s1 ? 20

Then CNC(=O)Nc1nnc(CC(C)C)s1 ? 20

Then O=C(Nc1ccc(Cl)c(Cl)c1)Nc1nnc(C(F)(F)F)s1 ? 20

Then CNC(=O)N(C)c1nnc(C(F)(F)F)s1 ? 100

Then Cc1nnc(NC(=O)N(C)C)s1 ? 10

Then CCSCCSc1nnc(NC(=O)NC)s1 ? 50

Then CNC(=O)Nc1nnc(SCc2ccc(Cl)cc2)s1 ? 20

Then CCN(C(=O)NC)c1nnc(C(F)(F)F)s1 ? 90

----------
Recorded pest or weed control at 4483.4 g/ha for the following compounds
# System: Turnip (TP)
# procedure_summary: Post-emergence herbicide test
# Assay type: in vivo, Brassica sp.
# cond: Brassica rapa, post-emergence, 336 h; 4 lb/acre; two weeks after treatment
Number only, in %; omit the unit.

Worked examples, 10 compounds total:
[
  {
    "compound": "CNC(=O)Nc1nnc(SCc2ccc([N+](=O)[O-])cc2)s1 [Example 55]",
    "test_system": "Turnip (TP)",
    "pest or weed control at 4483.4 g/ha, %": 90
  },
  {
    "compound": "CN(C)C(=O)Nc1nnc(C(F)(F)F)s1 [Example 2]",
    "test_system": "Turnip (TP)",
    "pest or weed control at 4483.4 g/ha, %": 90
  },
  {
    "compound": "CNC(=O)Nc1nnc(S(C)(=O)=O)s1 [Example 33]",
    "test_system": "Turnip (TP)",
    "pest or weed control at 4483.4 g/ha, %": 80
  },
  {
    "compound": "CNC(=O)Nc1nnc(C(F)(F)C(F)(F)F)s1 [Example 68]",
    "test_system": "Turnip (TP)",
    "pest or weed control at 4483.4 g/ha, %": 100
  },
  {
    "compound": "CCC(C)=CCSc1nnc(NC(=O)NC)s1 [Example 50]",
    "test_system": "Turnip (TP)",
    "pest or weed control at 4483.4 g/ha, %": 80
  },
  {
    "compound": "CNC(=O)Nc1nnc(SCCCCl)s1 [Example 61]",
    "test_system": "Turnip (TP)",
    "pest or weed control at 4483.4 g/ha, %": 80
  },
  {
    "compound": "CNC(=O)Nc1nnc(C(C)C)s1 [Example 82]",
    "test_system": "Turnip (TP)",
    "pest or weed control at 4483.4 g/ha, %": 80
  },
  {
    "compound": "CCCCCSc1nnc(NC(=O)NC)s1 [Example 59]",
    "test_system": "Turnip (TP)",
    "pest or weed control at 4483.4 g/ha, %": 100
  },
  {
    "compound": "CCCCCS(=O)(=O)c1nnc(NC(=O)NC)s1 [Example 64]",
    "test_system": "Turnip (TP)",
    "pest or weed control at 4483.4 g/ha, %": 90
  },
  {
    "compound": "CNC(=O)Nc1nnc(SCCC#N)s1 [Example 52]",
    "test_system": "Turnip (TP)",
    "pest or weed control at 4483.4 g/ha, %": 80
  }
]

Could you now consider this next compound?
Sample CNC(=O)Nc1nnc(SCC#N)s1 [Example 88] — what was its pest or weed control at 4483.4 g/ha? 40

Just for reference, patent US4175081A is where these values come from.
